From: ChEMBL document CHEMBL4739717

Recorded EC50, one value per entry.
Target: Dual specificity protein kinase CLK3 (Homo sapiens, UniProt P49761)
Sequence (P49761 whole entry): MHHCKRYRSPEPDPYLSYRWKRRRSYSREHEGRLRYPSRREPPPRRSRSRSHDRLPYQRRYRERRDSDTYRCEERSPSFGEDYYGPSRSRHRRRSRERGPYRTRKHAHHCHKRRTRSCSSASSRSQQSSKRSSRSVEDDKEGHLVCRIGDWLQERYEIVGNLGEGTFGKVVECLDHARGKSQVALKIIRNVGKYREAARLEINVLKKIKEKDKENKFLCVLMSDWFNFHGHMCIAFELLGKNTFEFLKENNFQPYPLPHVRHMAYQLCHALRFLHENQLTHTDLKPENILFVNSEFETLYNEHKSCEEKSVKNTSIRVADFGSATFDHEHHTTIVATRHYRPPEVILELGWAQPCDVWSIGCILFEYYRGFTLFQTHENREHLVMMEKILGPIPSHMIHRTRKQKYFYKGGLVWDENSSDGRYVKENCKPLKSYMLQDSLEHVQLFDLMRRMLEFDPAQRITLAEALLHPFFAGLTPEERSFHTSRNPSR
Assay: Inhibition of recombinant CLK3 (unknown origin) using Ser/Thr 18 peptide as substrate incubated for 1 hr in presence of ATP by FRET assay

CC(C)Nc1cncc(-c2cnc3[nH]nc(-c4cc5c(-c6ccccc6F)ccnc5[nH]4)c3c2)c1 : > 10 µM

Query: Which EC50 is reported for this compound? Cn1cc(-c2ccc3cnc(NC(=O)c4ccc5c(cnn5C)c4)cc3c2)cn1
Reply: 0.049 µM

Query: Requested read-out: EC50. Entry: COc1cncc(C#Cc2c[nH]nc2C(=O)Nc2ccc(N3CCNCC3)nc2)c1
Reply: > 10 µM

Query: Dear colleague, I am looking for the recorded EC50 of the following compound: O=C(Nc1cncc(-c2ccc3[nH]nc(-c4nc5c(-c6ccccn6)ccnc5[nH]4)c3n2)c1)c1ccccc1
Reply: > 10 µM

Query: For the compound shown here, Nc1cncc(-c2cc3c(-c4cc5c(-c6ccccc6F)ccnc5[nH]4)n[nH]c3cn2)c1 , give the reported EC50.
Reply: > 10 µM

Query: Using the record for O=C(Nc1cncc(-c2cnc3[nH]nc(-c4cc5cccnc5[nH]4)c3c2)c1)c1ccccc1 , report its EC50.
Reply: > 10 µM
